Tested on: CAL-51
test protocol: normalised viability (% of control), CellTiter-Blue; higher = more viable cells (about 100 = DMSO control)
experimental conditions: 10 nM; incubation time: 72 h
Entries and their normalised viability
Respond with the bare value in %.

CO[C@@H]1[C@H](N(C)C(=O)c2ccccc2)C[C@H]2O[C@]1(C)n1c3ccccc3c3c4c(c5c6ccccc6n2c5c31)C(=O)NC4 ... 91.9

What the record says about CNC(=O)c1ccccc1Sc1ccc2c(/C=C/c3ccccn3)n[nH]c2c1 : normalised viability is 107

What the record says about CC(C)(C)NC(=O)[C@H]1CC[C@H]2[C@@H]3CC[C@H]4NC(=O)C=C[C@]4(C)[C@H]3CC[C@]12C [Finasteride] : normalised viability is 109

What the record says about CC[C@H](CO)Nc1nc(NCc2ccccc2)c2ncn(C(C)C)c2n1 : normalised viability is 104

###

Tested on: HDQ-P1
test protocol: drug sensitivity score (DSS), CellTox Green (DSS (AUC-based score)); higher = stronger drug effect (viability inhibition or cytotoxicity); extreme values may be limits of the assay
experimental conditions: incubation time: 72 h
measured attribute: drug sensitivity score
Answer field: number only, no words.

Cc1nc(C(=O)NCC(=O)O)c(O)c2ccc(Oc3ccccc3)cc12 [FG-4592] ... 0

What the record says about CCn1c(C(=O)N(C2CC2)C2CC2)cc2c3c(ncn3C)c(Nc3cc(C)n(C)n3)nc21 : drug sensitivity score is 0

What the record says about Cn1cc(C2=C(c3cn(C4CCN(Cc5ccccn5)CC4)c4ccccc34)C(=O)NC2=O)c2ccccc21 [Enzastaurin] : drug sensitivity score is 0

###

Entries and their normalised response
Tested on: CAL-120
test protocol: normalised response (% of control), CellTiter-Glo; higher = more viable cells (100 = DMSO, 0 = benzethonium chloride kill control)
experimental conditions: incubation time: 72 h
Field: value (include unit after the number)

Illustrative cases are given below, each with its answer.
C/C(=C\c1csc(C)n1)[C@@H]1C[C@@H]2O[C@]2(C)CCC[C@H](C)[C@H](O)[C@@H](C)C(=O)C(C)(C)[C@@H](O)CC(=O)N1 [Ixabepilone] (1000 nM) ... 98%
CCN(CC)CCCC(C)Nc1ccnc2cc(Cl)ccc12 (stereo not given) [Chloroquine] (100000 nM) ... 7.89%

What the record says about CC1(C)CCC(c2ccc(Cl)cc2)=C(CN2CCN(c3ccc(C(=O)NS(=O)(=O)c4ccc(N[C@H](CCN5CCOCC5)CSc5ccccc5)c(S(=O)(=O)C(F)(F)F)c4)cc3)CC2)C1 [Navitoclax] (10000 nM) : normalised response is 37.4%

What the record says about CC[C@H](CO)Nc1nc(NCc2ccccc2)c2ncn(C(C)C)c2n1 [Seliciclib] (10000 nM) : normalised response is 92%

What the record says about CN(Cc1cnc2nc(N)nc(N)c2n1)c1ccc(C(=O)N[C@@H](CCC(=O)O)C(=O)O)cc1 [Methotrexate] (50000 nM) : normalised response is 21.7%

###

Entries and their EC50, CellTiter-Glo
System: BT-549
experimental conditions: 72 h
Respond with the bare value in µM.

CO[C@@H]1[C@H](N(C)C(=O)c2ccccc2)C[C@H]2O[C@]1(C)n1c3ccccc3c3c4c(c5c6ccccc6n2c5c31)C(=O)NC4 [Midostaurin] ... 0.585

What the record says about O=C(CCCCCCC(=O)Nc1ccccc1)NO [Vorinostat] : EC50, CellTiter-Glo is 7.34
